The reported numbers originate from the emibetuzumab library of Makowski et al. (2022).

B1: VH:VL chains; a variant is named by its letters at X, in order (parent)
chain 1: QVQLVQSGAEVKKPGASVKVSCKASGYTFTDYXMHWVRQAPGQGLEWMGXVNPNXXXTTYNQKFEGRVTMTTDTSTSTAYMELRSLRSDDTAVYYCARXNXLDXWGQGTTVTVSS
chain 2: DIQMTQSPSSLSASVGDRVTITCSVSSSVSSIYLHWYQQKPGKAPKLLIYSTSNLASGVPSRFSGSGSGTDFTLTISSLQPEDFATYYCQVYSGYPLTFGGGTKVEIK

Variants of: B1
Assay: yeast display scFab, FACS + sequencing
outcomeMeasure: non-specific binding call

Answered cases to consult:
1. DATGGFGV: no binding
2. DRAGDDWV: no binding
3. DRGRDDVV: no binding
4. YGRGNSGD: no binding
5. FKGKSSSD: binds
6. YRGEGAVS: binds

Bench note: what non-specific binding call did VRGRSDVF show?
no binding

Looking for the measured non-specific binding call of VKAGGSLY , can you help?
binds

Query (variant): VAATADAV ; field requested: non-specific binding call
no binding

What value of measured non-specific binding call is listed for FTGEAAGD ?
no binding

Which value of non-specific binding call has been reported for FTAGGAAD in the records?
binds

Give its non-specific binding call value. Item: SAREGYSV
binds

Report non-specific binding call for AKGGGDVV please.
no binding

Fill blank: measured non-specific binding call of the variant YRKRGSLV is ____.
binds

Which non-specific binding call is reported for this variant? VETEGSGV
no binding

Which non-specific binding call value belongs to YRRRGFVD ?
binds

Returns the measured non-specific binding call for the input variant. Input: VEAGDAAA
no binding

What value of non-specific binding call has been reported for the following variant? AETKGFAV
no binding

// query non-specific binding call value for entry DTAEDFGV
no binding
